- Test system: Delta-type opioid receptor (Rattus norvegicus, UniProt P33533)
- Sequence (P33533 whole entry): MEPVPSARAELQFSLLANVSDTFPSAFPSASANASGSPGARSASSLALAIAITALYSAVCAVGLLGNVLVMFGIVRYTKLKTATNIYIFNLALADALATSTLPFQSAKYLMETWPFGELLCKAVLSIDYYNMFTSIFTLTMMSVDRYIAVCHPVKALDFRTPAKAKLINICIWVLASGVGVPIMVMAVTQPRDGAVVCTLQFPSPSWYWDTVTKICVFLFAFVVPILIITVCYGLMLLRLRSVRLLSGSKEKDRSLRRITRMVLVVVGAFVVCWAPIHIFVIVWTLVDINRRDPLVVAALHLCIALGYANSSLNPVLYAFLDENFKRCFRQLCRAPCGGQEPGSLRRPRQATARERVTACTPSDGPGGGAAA
- Assay comment: Displacement of [3H]pCl-DPDP from delta opioid receptor in rat central nervous system membrane
Kindly state IC50 for each of the entries shown.
Expressed in µM, but write only the number.

Lookup: Given CN1CC[C@@]2(C)c3cc(O)ccc3N(C)[C@@H]12 , state its recorded IC50.
Found: 10

Lookup: I'd like to know its IC50. The compound in question is C/C=C1/CN2CC[C@@]34c5cc(O)ccc5N(C)[C@]35OC[C@@]4(C(=O)OC)[C@@H]1C[C@H]25
Found: 20

---

- Assay comment: Displacement of [3H]U69593 from kappa opioid receptor in guinea pig cerebellum membrane
- Type: cell membranes, Cavia porcellus
Measured attribute: IC50
Please state the value followed by its unit.

Lookup: May I ask what IC50 has been recorded for C/C=C1/CN2CC[C@@]34c5cc(O)ccc5N(C)[C@@]23CC[C@H]1[C@@]4(CO)C(=O)OC [DIHYDROAKUAMMINE] ?
Found: 20 µM

Lookup: Give the measured IC50 of CN1CC[C@@]2(C)c3cc(O)ccc3N(C)[C@@H]12 .
Found: 0.3 µM

Lookup: Reported IC50, compound C/C=C1/CN2CC[C@@]34c5cc(O)ccc5N(C)[C@]35OC[C@@]4(C(=O)OC)[C@@H]1C[C@H]25 [AKUAMMINE] : ____
Found: 4 µM

---

- Test system: Mu-type opioid receptor (Rattus norvegicus, UniProt P33535)
- Sequence (P33535 whole entry): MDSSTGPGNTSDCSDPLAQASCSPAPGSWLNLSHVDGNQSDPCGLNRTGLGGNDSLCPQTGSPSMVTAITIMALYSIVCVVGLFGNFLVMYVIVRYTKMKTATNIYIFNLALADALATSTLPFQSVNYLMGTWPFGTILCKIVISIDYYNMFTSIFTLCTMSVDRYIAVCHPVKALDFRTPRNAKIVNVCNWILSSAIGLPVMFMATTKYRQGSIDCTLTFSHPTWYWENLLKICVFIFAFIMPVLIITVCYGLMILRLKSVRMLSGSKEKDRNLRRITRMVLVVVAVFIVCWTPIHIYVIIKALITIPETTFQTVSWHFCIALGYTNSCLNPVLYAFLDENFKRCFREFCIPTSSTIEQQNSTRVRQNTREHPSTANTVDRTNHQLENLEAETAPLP
Give measured pIC50 for each item. Keep answers brief.
The scale used: pIC50 is minus the common logarithm of the concentration in molar units.

Lookup: What is its pIC50 for Mu-type opioid receptor (Rattus norvegicus, UniProt P33535)? Entry: CN1CC[C@@]2(C)c3cc(O)ccc3N(C)[C@@H]12
Found: 6.52

Lookup: Item: C/C=C1/CN2CC[C@@]34c5cc(O)ccc5N(C)[C@@]23CC[C@H]1[C@@]4(CO)C(=O)OC [DIHYDROAKUAMMINE] Test system: Mu-type opioid receptor (Rattus norvegicus, UniProt P33535) Read-out: pIC50 Value: ?
Found: 5.22
